protocol-text: Volume of distribution at steady state in mouse at 2 mg/kg, iv
Assay type: ADME, organism-based
Parameters: dose 2 mg/kg, route intravenous
condition-context: in vivo, read-out: Vdss
endpoint-label: Vd

>>> value_measured("CONC(=O)c1cn(-c2ccc3c(c2)CCC3)c2nc(Nc3ccc(C4CCN(C)CC4)cc3)ncc2c1=O")
"3.6 L/kg"

====

protocol-text: Plasma concentration in Freund's complete adjuvant-induced Lewis rat arthritis model at […], po twice daily administered on day 8 post adjuvant challenge measured 7 days after last dose
Assay type: ADME, organism-based
Design: dose 0.33 mg/kg, route oral
endpoint-label: concentration at 168 h (nM)

>>> value_measured("CONC(=O)c1cn(-c2ccc3c(c2)CCC3)c2nc(Nc3ccc(C4CCN(C)CC4)cc3)ncc2c1=O")
14
